target: PKR R532W (Homo sapiens, UniProt P30613, R532W); assay: PKR Mutant Assay, dose response (AC50), PKR R532W; format: biochemical; settings: PKR R532W mutant enzyme
Sequence (P30613 whole entry R532W): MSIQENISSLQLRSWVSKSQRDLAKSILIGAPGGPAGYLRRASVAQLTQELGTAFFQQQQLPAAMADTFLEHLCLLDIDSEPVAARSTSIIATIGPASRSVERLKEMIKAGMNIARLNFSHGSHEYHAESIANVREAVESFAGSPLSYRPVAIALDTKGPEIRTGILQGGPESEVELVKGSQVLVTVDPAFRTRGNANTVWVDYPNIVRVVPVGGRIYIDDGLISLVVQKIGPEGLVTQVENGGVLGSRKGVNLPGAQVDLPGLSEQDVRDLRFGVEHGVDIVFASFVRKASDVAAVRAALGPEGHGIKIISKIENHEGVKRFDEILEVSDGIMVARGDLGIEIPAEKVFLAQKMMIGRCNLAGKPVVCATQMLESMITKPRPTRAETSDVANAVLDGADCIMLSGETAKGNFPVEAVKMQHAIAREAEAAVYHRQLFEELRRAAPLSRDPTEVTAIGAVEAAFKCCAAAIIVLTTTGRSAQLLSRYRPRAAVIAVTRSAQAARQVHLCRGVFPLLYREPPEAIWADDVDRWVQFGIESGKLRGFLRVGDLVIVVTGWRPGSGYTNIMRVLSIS
Assay readout: AC50

# annotated cases, reported AC50 shown
Molecule	AC50
O=C(c1ccc(NS(=O)(=O)c2cccc3scnc23)cc1)N1CCC(O)(c2ncc(Cl)s2)CC1 [Compound 509]	101 to 1000 nM
CC(C)CC1(OC(=O)OCOP(=O)(O)O)CCN(C(=O)c2ccc(NS(=O)(=O)c3cccc4scnc34)cc2)CC1 [Compound 526]	101 to 1000 nM
CS(=O)(=O)CCC1(O)CCN(C(=O)c2ccc(NS(=O)(=O)c3cccc4nccnc34)cc2)CC1 [Compound 470]	1010 to 10000 nM
Cc1noc(C)c1CC1(O)CCN(C(=O)c2ccc(NS(=O)(=O)c3cccc4nccnc34)cc2)CC1 [Compound 521]	< 100 nM
CS(=O)(=O)CC1(O)CCN(C(=O)c2ccc(NS(=O)(=O)c3cccc4scnc34)cc2)CC1 [Compound 472]	101 to 1000 nM
Cc1noc(C)c1CC1(O)CCN(C(=O)c2ccc(NS(=O)(=O)c3cccc4scnc34)cc2)CC1 [Compound 520]	< 100 nM

So what AC50 did O=C(c1ccc(NS(=O)(=O)c2cccc3scnc23)cc1)N1CCC(O)(c2scnc2Cl)CC1 [Compound 480] get with PKR R532W (Homo sapiens, UniProt P30613, R532W)?
< 100 nM

Param readout= AC50; system= PKR R532W (Homo sapiens, UniProt P30613, R532W); entry= CC(F)(F)CCC1(O)CCN(C(=O)c2ccc(NS(=O)(=O)c3cccc4nccnc34)cc2C#N)CC1 [Compound 492] ; returns value.
101 to 1000 nM

Record O=C(c1ccc(NS(=O)(=O)c2cccc3scnc23)cc1)N1CCC(O)(C2CCC(O)CC2)CC1 (stereo not drawn) [Compound 501] : what is its AC50 with PKR R532W (Homo sapiens, UniProt P30613, R532W)?
101 to 1000 nM
